- assayed system: endogenous human PAPPA natively secreted by human cells (A549; 9-7) (human, UniProt Q13219 82-1627)
- Sequence (Q13219 82-1627 limits assumed): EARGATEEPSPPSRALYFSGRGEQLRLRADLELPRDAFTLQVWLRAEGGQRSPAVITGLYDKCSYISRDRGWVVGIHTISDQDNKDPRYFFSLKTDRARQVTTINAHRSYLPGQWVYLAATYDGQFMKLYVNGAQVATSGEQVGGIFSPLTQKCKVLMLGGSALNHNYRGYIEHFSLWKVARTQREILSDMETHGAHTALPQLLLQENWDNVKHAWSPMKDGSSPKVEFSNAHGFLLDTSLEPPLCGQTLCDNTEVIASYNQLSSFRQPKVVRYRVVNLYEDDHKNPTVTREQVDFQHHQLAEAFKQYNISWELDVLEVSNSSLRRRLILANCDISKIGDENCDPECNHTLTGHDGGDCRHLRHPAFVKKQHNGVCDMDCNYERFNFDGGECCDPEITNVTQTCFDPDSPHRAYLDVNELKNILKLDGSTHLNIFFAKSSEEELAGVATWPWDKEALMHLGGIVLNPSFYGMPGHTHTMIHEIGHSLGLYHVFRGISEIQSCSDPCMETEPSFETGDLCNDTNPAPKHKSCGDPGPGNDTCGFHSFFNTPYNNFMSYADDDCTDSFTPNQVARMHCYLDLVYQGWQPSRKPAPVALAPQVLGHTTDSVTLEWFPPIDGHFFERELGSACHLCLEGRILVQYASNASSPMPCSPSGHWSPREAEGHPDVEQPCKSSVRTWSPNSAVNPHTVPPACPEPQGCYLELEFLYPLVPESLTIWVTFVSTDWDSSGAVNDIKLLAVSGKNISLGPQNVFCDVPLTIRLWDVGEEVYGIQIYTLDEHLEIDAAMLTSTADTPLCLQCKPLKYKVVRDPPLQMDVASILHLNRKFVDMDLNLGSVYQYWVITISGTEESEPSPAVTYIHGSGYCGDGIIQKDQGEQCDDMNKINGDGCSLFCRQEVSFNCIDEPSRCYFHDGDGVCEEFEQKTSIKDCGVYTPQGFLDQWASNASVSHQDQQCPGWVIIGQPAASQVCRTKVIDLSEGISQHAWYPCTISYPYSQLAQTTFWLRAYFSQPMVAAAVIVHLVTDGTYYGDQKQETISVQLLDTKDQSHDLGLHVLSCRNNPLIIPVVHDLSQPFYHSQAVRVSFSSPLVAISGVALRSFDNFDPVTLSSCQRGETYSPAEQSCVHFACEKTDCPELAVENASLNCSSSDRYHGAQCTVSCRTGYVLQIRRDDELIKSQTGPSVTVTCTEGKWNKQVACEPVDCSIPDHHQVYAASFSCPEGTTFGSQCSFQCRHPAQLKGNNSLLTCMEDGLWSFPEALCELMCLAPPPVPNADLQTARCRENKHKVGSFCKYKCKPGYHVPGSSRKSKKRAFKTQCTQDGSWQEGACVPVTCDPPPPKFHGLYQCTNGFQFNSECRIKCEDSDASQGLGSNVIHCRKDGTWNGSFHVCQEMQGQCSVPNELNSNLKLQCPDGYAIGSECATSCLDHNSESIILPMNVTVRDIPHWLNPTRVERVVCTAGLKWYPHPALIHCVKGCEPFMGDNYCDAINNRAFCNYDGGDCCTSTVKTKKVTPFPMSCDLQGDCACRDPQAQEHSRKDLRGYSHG
- method summary: cell-based or functional assay
observable: A549 cells endogenous human PAPP-A pIC50 (A549 pAKT assay) (pIC50)

{"binder": "TPP-12801 (antibody, human IgG1, kappa, V domains shown) VH: QLQLQESGPGLVKPSETLSLTCTVSGGSISSSDYYWGWIRQPPGKGLEWIGSIFYSGSTYYNPSLKSRVTISVDTSKNQFSLKLSSVTAADTAVYYCARATTSSSADYWGQGTLVTVSS VL: DIQMTQSPSSVSASVGDRVTITCRASQGVSRWLAWYQQKPGKAPKLLIYAASSLQSGVPSRFSGSGSGTDFTLTISSLQPEDFATYYCQQGNVPPLTFGGGTKVEIKR", "experimental result": 9.33}

Data origin, for the record: patent US20260226194A1
